Where do the numbers come from? From patent US9850219B1.

system: PANC-1; assay: Cytotoxicity, sulforhodamine B (SRB) assay, PANC-1; type: cell-based, human; settings: Homo sapiens, PANC-1, Pancreas, 48 h, NA = no activity
Experimental endpoint: IC50 (µM)

INSERT INTO assay_data (molecule, value_reported) VALUES
  ('OCC(O)COCC(O)COCC(O)CN1CCN(CCCN2c3ccccc3Sc3ccc(Cl)cc32)CC1 (stereo not drawn) [Compound 33a, NDP-[CH2CH(OH)CH2O]3—H]', 30.2),
  ('COCCOCCOCCOCCOCCOCCOCCOCCOCCOCC(COCC(COCC(CN1CCN(CCCN2c3ccccc3Sc3ccc(C(F)(F)F)cc32)CC1)OC)OC)OC (stereo not drawn) [Compound 26-2b, NDT-[CH2CH(OCH3)CH2O]3—[CH2CH2O]n—CH3]', 12.9),
  ('COCC(COCC(COCC(COCCOCCOCCOCCOCCOCCOCCOCCOCCN1CCN(CCCN2c3ccccc3Sc3ccc(C(F)(F)F)cc32)CC1)OC)OC)OC (stereo not drawn) [Compound 25-2b, NDT-[CH2CH2O]n—[CH2CH(OCH3)CH2O]3—CH3]', 2.9);
